System: PRKCQ;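 note: KINOMEscan kinase panel screen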
Applied Conditions: concentration: 1 μM, replicates: in singlicate; n = 1
Can you tell me %Inh for the items I'm about to list?
Entry format: amount then unit.

These solved cases illustrate the format of a correct answer.
# Molecule, Test System, Reported Measurement
measured = [
    ("COc1ccc(Nc2nccc(N3CCC(NC(=O)C(C)c4ccc(Cl)cc4)CC3)n2)cc1 (stereo not shown) [GSK1379812]", "PRKCQ", "0%"),
    ("Cc1c(Cn2c3ccccc3n3c(=O)cc(N4CCOCC4)nc23)cccc1C(F)(F)F [GSK2306394]", "PRKCQ", "10%"),
    ("O=C(Nc1n[nH]c2nc(-c3cccs3)c(Br)cc12)C1CC1 [SB-735297]", "PRKCQ", "7%"),
    ("COC(=O)c1cccc(NC(=O)NC2CCN(c3ccnc(Nc4ccc(OC)cc4)n3)C2)c1 (stereo not shown) [GSK1379746]", "PRKCQ", "0%"),
]

# batch: return %Inh for each of the 3 molecules below
1. CNc1nc(-c2ccc3c(N)n[nH]c3c2)cc(N2C[C@@H](C(=O)NC3CCCCC3)OC[C@H]2C)n1 [GSK2375584]
2. O=c1cc(N2CCOCC2)nc2n(Cc3ccccc3F)ccn12 [GSK2297428]
3. Cl.Cl.Cl.N#Cc1ccc(CCNc2nccc(-c3cccc(CN4CCNCC4)c3)n2)cc1 [GSK2137462]

1. 0%
2. 0%
3. 5%

Data credit: paper PMC5540273
